Source listed as the Human Domainome abundance scans (Beltran et al. 2025).

B1: Lysine-specific demethylase 2B, residues 656 to 722; numbered along this chain, Q8NHM5 (parent)
chain: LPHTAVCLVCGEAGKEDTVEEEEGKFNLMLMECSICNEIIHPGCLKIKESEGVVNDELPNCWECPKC

# Variants of: B1
# Assay explanation: abundance fitness (aPCA) (normalised: wild type 0, dead -1); higher = more abundant; growth selection in yeast, the domain comes from the species named
# Applied conditions: Homo sapiens
abundance fitness for assorted variants

>  <Mutations>
M29L

>  <abundance fitness>
-0.274

$$$$
>  <Mutations>
G43D

>  <abundance fitness>
-0.064

$$$$
>  <Mutations>
P65L

>  <abundance fitness>
-0.606

$$$$
>  <Mutations>
M31K

>  <abundance fitness>
-0.093

$$$$
>  <Mutations>
T18I

>  <abundance fitness>
-0.14

$$$$
>  <Mutations>
E21M

>  <abundance fitness>
-0.062

$$$$
>  <Mutations>
I35G

>  <abundance fitness>
-0.14

$$$$
>  <Mutations>
K15G

>  <abundance fitness>
-0.206

$$$$
>  <Mutations>
E12I

>  <abundance fitness>
-0.357

$$$$
>  <Mutations>
E16N

>  <abundance fitness>
-0.646

$$$$
>  <Mutations>
C64P

>  <abundance fitness>
-0.684

$$$$
